pIC50: −log10 of the molar value.
Several reports have described pIC50 for Prostaglandin G/H synthase 1 (Ovis aries, UniProt P05979); a selection of those results is presented here.

# Sample Smiles, Target Or Test System, pIC50
rows = [
    ("COc1c(-c2cc(C(F)(F)F)nn2-c2ccc(S(N)(=O)=O)cc2)c(O)cc2occc12", "Prostaglandin G/H synthase 1 (Ovis aries, UniProt P05979)", "< 4.30"),
    ("Cn1c(Cl)c(Cl)c(-c2ccc(F)cc2)c1-c1ccc(S(C)(=O)=O)cc1", "Prostaglandin G/H synthase 1 (Ovis aries, UniProt P05979)", 3.19),
    ("CC(=O)O[C@@H]1[C@@H](C)[C@@]2(O)[C@@H](C=C(CO)C[C@]3(O)C(=O)C(C)=C[C@@H]23)[C@@H]2C(C)(C)[C@]12OC(=O)C(C)C", "Prostaglandin G/H synthase 1 (Ovis aries, UniProt P05979)", "< 4.30"),
]
